Quick note: these are pKi numbers for system: KDR (Homo sapiens, UniProt P35968)
Sequence (P35968 20-1356): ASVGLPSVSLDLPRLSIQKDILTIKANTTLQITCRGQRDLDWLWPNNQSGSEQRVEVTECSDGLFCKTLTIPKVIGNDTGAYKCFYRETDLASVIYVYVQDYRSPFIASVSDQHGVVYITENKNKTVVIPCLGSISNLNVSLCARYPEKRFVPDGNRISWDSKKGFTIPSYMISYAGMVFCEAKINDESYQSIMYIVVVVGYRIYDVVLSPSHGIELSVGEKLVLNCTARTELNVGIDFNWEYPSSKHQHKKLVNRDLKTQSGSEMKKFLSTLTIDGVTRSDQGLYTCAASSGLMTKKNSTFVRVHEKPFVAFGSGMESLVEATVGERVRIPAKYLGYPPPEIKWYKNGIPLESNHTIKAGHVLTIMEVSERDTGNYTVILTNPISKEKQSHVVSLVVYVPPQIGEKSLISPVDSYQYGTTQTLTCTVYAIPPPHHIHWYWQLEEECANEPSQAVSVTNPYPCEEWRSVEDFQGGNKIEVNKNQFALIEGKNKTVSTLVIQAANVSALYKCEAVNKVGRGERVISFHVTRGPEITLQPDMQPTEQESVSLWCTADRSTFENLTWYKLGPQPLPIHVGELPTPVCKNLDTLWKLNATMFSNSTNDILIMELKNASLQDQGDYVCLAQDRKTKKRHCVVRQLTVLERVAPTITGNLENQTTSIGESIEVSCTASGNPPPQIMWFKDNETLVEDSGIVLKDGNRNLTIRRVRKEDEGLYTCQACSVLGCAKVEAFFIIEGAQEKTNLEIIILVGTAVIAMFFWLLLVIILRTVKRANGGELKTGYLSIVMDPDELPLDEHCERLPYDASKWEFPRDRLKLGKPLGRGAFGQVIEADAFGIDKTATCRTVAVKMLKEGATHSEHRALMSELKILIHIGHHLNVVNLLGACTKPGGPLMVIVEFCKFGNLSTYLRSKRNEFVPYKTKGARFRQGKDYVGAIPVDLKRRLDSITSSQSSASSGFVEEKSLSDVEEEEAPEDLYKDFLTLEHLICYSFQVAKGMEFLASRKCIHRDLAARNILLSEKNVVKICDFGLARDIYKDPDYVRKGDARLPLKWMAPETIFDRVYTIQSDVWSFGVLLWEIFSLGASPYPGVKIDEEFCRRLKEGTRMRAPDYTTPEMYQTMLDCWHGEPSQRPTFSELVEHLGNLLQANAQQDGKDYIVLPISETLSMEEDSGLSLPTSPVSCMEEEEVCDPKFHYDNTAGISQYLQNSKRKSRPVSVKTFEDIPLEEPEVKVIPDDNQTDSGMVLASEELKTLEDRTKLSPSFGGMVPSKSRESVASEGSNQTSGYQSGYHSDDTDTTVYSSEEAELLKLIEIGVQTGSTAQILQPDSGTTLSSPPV
pKi: −log10 of the molar value.

pKi of CN(C)c1cccc(-c2cnc3[nH]cc(-c4oncc4-c4cccc(F)c4F)c3c2)c1 on KDR (Homo sapiens, UniProt P35968)?
6.00 to 6.70

pKi of COc1ccnc(-c2cnc3[nH]cc(-c4oncc4-c4cccc(F)c4F)c3c2)c1 on KDR (Homo sapiens, UniProt P35968)?
> 6.70

pKi of Fc1cccc(-n2cnnc2-c2c[nH]c3ncc(-c4ccc(N5CCNCC5)nc4)cc23)c1F on KDR (Homo sapiens, UniProt P35968)?
4.90 to 6.00

Reference source: patent US7446199B2
